Endpoint summary: IC50, system: Chromobox protein homolog 7 (Homo sapiens, UniProt O95931), multiple sources combined.
Sequence (O95931 whole entry): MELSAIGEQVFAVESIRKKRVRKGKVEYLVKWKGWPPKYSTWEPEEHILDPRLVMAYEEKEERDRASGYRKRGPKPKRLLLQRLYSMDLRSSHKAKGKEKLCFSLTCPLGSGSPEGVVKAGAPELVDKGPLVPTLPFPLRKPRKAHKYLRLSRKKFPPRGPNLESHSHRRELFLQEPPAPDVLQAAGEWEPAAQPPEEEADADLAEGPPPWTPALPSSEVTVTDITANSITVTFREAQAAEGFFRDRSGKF

Prompt: What IC50 value was documented for this compound, CC(C1CCN(C(=O)c2ccc(C(=O)N3CCC(N4CCCC4)CC3)cc2)CC1)N1CCN(C)CC1 (stereo unspecified) ?
Response: > 10 µM

Prompt: Could you do the same for c1cc(CN2CCCC2)ccc1CCN1CCCC1 , please?
Response: > 30 µM

Prompt: Could you do the same for O=C(c1ccc(C(=O)N2CCC3(CCNC3)C2)cc1)N1CCC(N2CCCC2)CC1 (stereo unspecified) , please?
Response: > 10 µM

Prompt: Could you do the same for c1cc(N2CCC(N3CCCC3)CC2)ccc1CCN1CCC1 , please?
Response: > 30 µM

Prompt: Could you do the same for c1cc(N2CCC(N3CCCC3)CC2)ccc1CCN1CCCCCC1 , please?
Response: > 30 µM

Prompt: Could you do the same for c1cc(N2CCC(N3CCCC3)CC2)ccc1CCCN1CCCC1 , please?
Response: > 30 µM

Prompt: Could you do the same for O=C(c1ccc(C(=O)N2CCC(N3CCCC3)CC2)c(Cc2ccccc2)c1)N1CCC(N2CCCC2)CC1 , please?
Response: > 10 µM

Prompt: Could you do the same for O=C(c1cncc(Br)c1)N1CCC(N2CCCC2)CC1 , please?
Response: > 30 µM

Prompt: Could you do the same for O=C(c1ccc(C(=O)N2CC3CCC(C2)C3N2CCCC2)cc1)N1CC2CCC(C1)C2N1CCCC1 (stereo unspecified) , please?
Response: > 10 µM

Prompt: Could you do the same for O=C(c1ccc(C(=O)N2CCC(N3CCCC3)CC2)s1)N1CCC(N2CCCC2)CC1 , please?
Response: > 10 µM

Prompt: Could you do the same for CC(C)C[C@H](NC(=O)[C@H](C)NCc1ccc(C(=O)O)cc1)C(=O)N[C@@H](CCCC[N+](C)(C)C)C(=O)N[C@@H](CO)C(N)=O , please?
Response: > 2000 µM

Prompt: Could you do the same for O=C(c1ccc(C(=O)N2CC3CNCC3C2)cc1)N1CCC(N2CCCC2)CC1 (stereo unspecified) , please?
Response: > 10 µM

Prompt: Could you do the same for Clc1cc(N2CCC(N3CCCC3)CC2)ccc1CCN1CCCC1 , please?
Response: > 30 µM

Prompt: Could you do the same for c1cc(CCN2CCCC2)cc(N2CCC(N3CCCC3)CC2)c1 , please?
Response: > 30 µM

Prompt: Could you do the same for O=C(c1ccc(C(=O)N2CCC(N3CCCC3)CC2)cc1)N1CCC(C2CCNCC2)CC1 , please?
Response: > 10 µM

Prompt: Could you do the same for O=C(c1ccc(S(=O)(=O)N2CCC(N3CCCC3)CC2)cc1)N1CCC(N2CCCC2)CC1 , please?
Response: > 10 µM
